Test: The drug is tested on WLS-086 corresponding to human gut metagenome with ENA study accession number: PRJEB37062 and ENA sample accession number: ERS12561752 for biotransformation under anaerobic condition. The drug concentrations were measured over 9 timepoints collected between 0 and 24 hours of incubation by liquid-chromatography-coupled mass spectrometry (LC–MS); also: call rule not given here
Details: 2 µM

[
  {
    "molecule": "OC(Cn1cncn1)(Cn1cncn1)c1ccc(F)cc1F",
    "Bacterial Biotransformation": "Compound metabolized"
  },
  {
    "molecule": "CCOC(=O)[C@H](CCc1ccccc1)N[C@H]1CCc2ccccc2N(CC(=O)O)C1=O",
    "Bacterial Biotransformation": "Compound metabolized"
  },
  {
    "molecule": "CC(C)NCC(O)COc1ccc(COCCOC(C)C)cc1.CC(C)NCC(O)COc1ccc(COCCOC(C)C)cc1.O=C(O)/C=C/C(=O)O (stereo unspecified) [BISOPROLOL FUMARATE]",
    "Bacterial Biotransformation": "Compound metabolized"
  },
  {
    "molecule": "COc1ccccc1N1CCN(CC(O)COc2cccc3ccccc23)CC1 (stereo unspecified)",
    "Bacterial Biotransformation": "Compound NOT metabolized"
  },
  {
    "molecule": "CC(CN(C)C)CN1c2ccccc2CCc2ccccc21.O=C(O)/C=C\\C(=O)O (stereo unspecified) [TRIMIPRAMINE MALEATE]",
    "Bacterial Biotransformation": "Compound metabolized"
  },
  {
    "molecule": "CC(C)c1nc(CN(C)C(=O)N[C@H](C(=O)N[C@@H](Cc2ccccc2)C[C@H](O)[C@H](Cc2ccccc2)NC(=O)OCc2cncs2)C(C)C)cs1",
    "Bacterial Biotransformation": "Compound metabolized"
  },
  {
    "molecule": "CCN1CCCC1CNC(=O)c1cc(S(N)(=O)=O)ccc1OC (stereo unspecified) [SULPIRIDE]",
    "Bacterial Biotransformation": "Compound metabolized"
  },
  {
    "molecule": "O=c1n(CCCN2CCN(c3cccc(Cl)c3)CC2)nc2ccccn12",
    "Bacterial Biotransformation": "Compound metabolized"
  },
  {
    "molecule": "CN1CC(=O)N2[C@H](c3ccc4c(c3)OCO4)c3[nH]c4ccccc4c3C[C@@H]2C1=O",
    "Bacterial Biotransformation": "Compound metabolized"
  },
  {
    "molecule": "CO[C@]12C[C@@H](COC(=O)c3cncc(Br)c3)CN(C)[C@@H]1Cc1cn(C)c3cccc2c13",
    "Bacterial Biotransformation": "Compound metabolized"
  },
  {
    "molecule": "O=C1NCC2(CCN(CCc3ccccc3)CC2)O1 [FENSPIRIDE]",
    "Bacterial Biotransformation": "Compound metabolized"
  },
  {
    "molecule": "CC(C)(C)NC[C@H](O)COc1ccccc1C1CCCC1.CC(C)(C)NC[C@H](O)COc1ccccc1C1CCCC1.O=S(=O)(O)O [PENBUTOLOL SULFATE]",
    "Bacterial Biotransformation": "Compound metabolized"
  },
  {
    "molecule": "CN1CCN(C2=Nc3cc(Cl)ccc3Nc3ccccc32)CC1",
    "Bacterial Biotransformation": "Compound metabolized"
  },
  {
    "molecule": "O=C(Nc1ccccc1)OCC(CN1CCCCC1)OC(=O)Nc1ccccc1 (stereo unspecified)",
    "Bacterial Biotransformation": "Compound metabolized"
  },
  {
    "molecule": "CN(C)CCc1c[nH]c2ccc(Cn3cncn3)cc12.O=C(O)c1ccccc1 [RIZATRIPTAN BENZOATE]",
    "Bacterial Biotransformation": "Compound NOT metabolized"
  },
  {
    "molecule": "CC[C@H](C)C(=O)O[C@H]1C[C@@H](C)C=C2C=C[C@H](C)[C@H](CC[C@@H]3C[C@@H](O)CC(=O)O3)[C@H]21",
    "Bacterial Biotransformation": "Compound NOT metabolized"
  }
]
